Here, each record is paired with measured phosphorylation enrichment data.
molecular target: EPHB2 (UniProt P29323); assay: phosphorylation enrichment, bacterial display (enrichment ratio); higher = better substrate or ligand; peptides without Tyr show the background;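 note: 11-residue human phosphosite peptides and single-mutation variants displayed on the E. coli surface, counted by deep sequencing, each peptide's frequency after selection divided by its frequency in the unselected input library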;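 note: frequency after pTyr selection over input frequency; kinase dosed for 20-30% of maximal phosphorylation in three min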
Sequence (P29323 whole entry, looked up): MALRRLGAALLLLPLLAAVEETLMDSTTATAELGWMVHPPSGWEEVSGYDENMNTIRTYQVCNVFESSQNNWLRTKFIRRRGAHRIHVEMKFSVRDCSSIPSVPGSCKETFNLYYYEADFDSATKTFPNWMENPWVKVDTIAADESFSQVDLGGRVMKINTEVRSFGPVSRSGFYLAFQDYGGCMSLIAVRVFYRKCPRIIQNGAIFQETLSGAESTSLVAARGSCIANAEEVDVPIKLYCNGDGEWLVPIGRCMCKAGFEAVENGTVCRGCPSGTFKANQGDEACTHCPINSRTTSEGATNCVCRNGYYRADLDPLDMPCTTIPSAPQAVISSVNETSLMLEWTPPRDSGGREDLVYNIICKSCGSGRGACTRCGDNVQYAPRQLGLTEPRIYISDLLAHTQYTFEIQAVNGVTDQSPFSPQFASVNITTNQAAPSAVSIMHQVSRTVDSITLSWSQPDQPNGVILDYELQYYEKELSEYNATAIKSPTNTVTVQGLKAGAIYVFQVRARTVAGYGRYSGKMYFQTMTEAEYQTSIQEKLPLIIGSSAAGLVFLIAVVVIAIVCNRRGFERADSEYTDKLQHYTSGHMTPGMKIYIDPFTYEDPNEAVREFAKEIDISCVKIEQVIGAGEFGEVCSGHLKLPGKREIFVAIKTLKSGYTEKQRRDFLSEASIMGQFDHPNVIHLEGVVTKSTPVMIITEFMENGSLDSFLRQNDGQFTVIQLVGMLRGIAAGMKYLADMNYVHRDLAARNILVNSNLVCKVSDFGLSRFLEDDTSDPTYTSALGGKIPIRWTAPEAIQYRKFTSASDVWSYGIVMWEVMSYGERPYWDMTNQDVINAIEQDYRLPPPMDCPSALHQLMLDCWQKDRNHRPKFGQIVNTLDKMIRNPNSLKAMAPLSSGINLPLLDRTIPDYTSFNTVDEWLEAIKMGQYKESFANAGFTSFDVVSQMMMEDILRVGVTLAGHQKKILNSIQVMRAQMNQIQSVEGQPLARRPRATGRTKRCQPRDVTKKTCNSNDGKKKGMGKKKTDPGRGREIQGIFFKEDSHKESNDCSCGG
Please reply with the value in numeric form only.

Data request: Quick one: phosphorylation enrichment for HQKKPYCHAHN [NRAP_Y53] ?
Data returned: 0.8

Continuing:
Data request: Any idea what phosphorylation enrichment was measured for TESALYGCTVV [KIAA1804_Y724_L729V] ?
Data returned: 0.833

Data request: Can you check AFGEVYEGQES [ALK_Y1131_V1135E] next?
Data returned: 0.622

Data request: Also AEYGLYAAMVR [VSX2_Y222_G223A] , if possible.
Data returned: 9.84

Data request: Next sequence: CLSHCYFSQIR [MCM3AP_Y873_L870S]
Data returned: 0.497

Data request: And then FSLPAYMDRRD [COX4I1_Y38] , what is it?
Data returned: 0.471

Data request: Queued: RRNTPYSQTMK [TET2_Y819_S817T]
Data returned: 0.365

Data request: Next: AAAAVYTFLPD [MYORG_Y36_M35V]
Data returned: 2.45

Data request: # iterate: LFLALYTGLVH [PIGB_Y402]
Data returned: 1.4

Data request: Note, next up: FRQLPYCPSVE [CTNND2_Y508_Q507P_YF]
Data returned: 0.748

Data request: Same again, this time with PIPAAYNRYDQ [CDC73_Y290]
Data returned: 0.571
